procedure_summary: NOVARTIS: Cytotoxicity against human hepatocellular carcinoma cell line (Huh7)
Format: toxicity, cell-based, Huh-7
assay_context: Huh7 cells (hepatocellular carcinoma cell line)
readout_label: CC50

CC(C)CN1C(=O)c2ccccc2C(C(=O)Nc2ccccc2F)C1c1cccs1 (stereo not given) = > 100 µM
COc1ccc(CN(Cc2cc3cc(OC)c(OC)cc3[nH]c2=O)C(=S)NCCc2ccc(OC)c(OC)c2)cc1 = 35.7 µM
c1cncc(-c2cc(N3CCc4ccccc4C3)nc(-c3ccncc3)n2)c1 = > 10 µM
COc1cc2c3cc1Oc1c(OC)c(OC)cc4c1C(Cc1ccc(O)c(c1)Oc1ccc(cc1)CC3N(C)CC2)N(C)CC4 (stereo not given) = > 10 µM
CCCCNC(=O)C(c1cccc(OC)c1)N1C(=O)c2cc(Oc3ccccc3)ccc2NC(=O)C1CO (stereo not given) = > 14 µM

Qu. Fill blank: measured CC50 of the compound CCOC(=O)c1ccc(N(C(=O)CSCC(=O)Nc2cc(C)on2)C(C(=O)NC2CCCCC2)c2ccc(O)c(O)c2)cc1 (stereo not given) is ____.
Ans. > 10 µM

Qu. CCOC(=O)c1c(C)oc2c1C(=O)c1ccccc1C2=O , same question.
Ans. 49.3 µM

Qu. Cc1nc2c(c(C)nn2C)c(C)c1CCC(=O)N1CCCC1 , same question.
Ans. > 6.85 µM

Qu. Cc1ccc(C(=O)N(C)CCCNc2ccnc3cc(Cl)ccc23)cc1 , same question.
Ans. 5.37 µM

Qu. COCCN(CC(=O)NCc1ccc(OC2CCN(CC(c3ccccc3)c3ccccc3)CC2)cc1)S(=O)(=O)c1ccccc1 , same question.
Ans. > 10 µM

Qu. Cc1cc(Nc2ccc(C)c(C)c2)n2nc(C)nc2n1 , same question.
Ans. > 100 µM

Qu. Oc1ccc(-c2nc(-c3ccc4oc5ccc(-c6[nH]c(-c7ccc(O)cc7)nc6-c6ccccc6)cc5c4c3)c(-c3ccccc3)[nH]2)cc1 , same question.
Ans. > 100 µM

====

Some molecules, each annotated with its measured CC50.
procedure_summary: NOVARTIS: Cytotoxicity against human hepatocellular carcinoma cell line (Huh7)
Type: toxicity, cell-based, Huh-7
assay_context: Huh7 cells (hepatocellular carcinoma cell line)

Worked set:
COc1ccc(OC)c(NC(=O)CSc2nc(NCc3ccc(Cl)cc3)c3ccccc3n2)c1 = > 100 µM
O=C(c1ccco1)N1CCN(c2ccc([N+](=O)[O-])c(NC3CC3)c2)CC1 = > 100 µM
O=C(NCc1ccc(Cl)cc1)C1CNCC1c1ccc(C(F)(F)F)cc1 (stereo not given) = 18.2 µM
Cc1cccc(NC(=O)c2ccc3ccccc3n2)n1 = > 10 µM

Qu. Fill blank: measured CC50 of the molecule CC1CC(C)CC(C)C(O)C(C#N)=CC=CCC(C2CCCC2C(=O)O)OC(=O)CC(O)C(C)C1 (stereo not given) is ____.
Ans. 2.85 µM

====

procedure_summary: NOVARTIS: Cytotoxicity against human hepatocellular carcinoma cell line (Huh7)
Type: toxicity, cell-based, Huh-7
assay_context: Huh7 cells (hepatocellular carcinoma cell line)
Some compounds, each annotated with its measured CC50.

Worked set:
CCOC(=O)c1sc(NC(=O)C(C)Sc2nnc(CNC(=O)c3ccc(OC)cc3)n2-c2ccccc2OC)c(C(=O)OCC)c1C (stereo not given) = > 10 µM
CC1CCN(C2=C(NC3CCCC3)C(=O)c3ccccc3C2=O)CC1 = 24.4 µM
COc1ccc(C=CC(=O)NC(=O)c2ccccc2O)cc1OC = > 100 µM

Qu. Fill blank: measured CC50 of the compound O=C(Nc1ccccc1F)NC1CC2CCCC(C1)N2CCc1ccccc1 (stereo not given) is ____.
Ans. > 10.6 µM

Qu. CC(=O)Nc1cccc(-c2cncc(-c3ccc(C(=O)O)cc3)n2)c1 , same question.
Ans. > 100 µM

Qu. COC(=O)c1c(-c2c(F)cccc2Cl)noc1C=CNc1ccccc1 , same question.
Ans. 73.7 µM

Qu. O=C1C(Nc2ccc(O)cc2)=CC(=NS(=O)(=O)c2cccs2)c2ccccc21 , same question.
Ans. 2.43 µM

Qu. COc1cccc(C(C(=O)NC2CCCCC2)N(C(=O)c2snc(C(N)=O)c2N)c2ccc(C)cc2)c1OC (stereo not given) , same question.
Ans. > 100 µM

Qu. O=C(Nc1ccccc1Cl)C1CCCN1C(=O)OCc1ccccc1 (stereo not given) , same question.
Ans. > 10 µM

Qu. CSc1ccc(C=CC(=O)NC(=O)c2ccccc2O)cc1 , same question.
Ans. > 100 µM

====

Some molecules, each annotated with its measured CC50.
procedure_summary: NOVARTIS: Cytotoxicity against human hepatocellular carcinoma cell line (Huh7)
Type: toxicity, cell-based, Huh-7
assay_context: Huh7 cells (hepatocellular carcinoma cell line)

Worked set:
COC(=O)c1c(N)n(-c2ccccc2OC)c2nc3ccccc3nc12 = > 100 µM
CCN(CC)CCN(Cc1cc2cc(OC)ccc2[nH]c1=O)C(=S)Nc1cccc(Cl)c1 = 23.1 µM
CC=C[C@H]1O[C@@](O)([C@@H](C)C(O)C(C)[C@H]2OC(=O)C(OC)=CC(C)=C[C@@H](C)[C@H](O)C(CC)[C@@H](O)[C@H](C)CC(C)=CC=C[C@@H]2OC)C[C@@H](O[C@H]2C[C@@H](O)[C@H](OC(N)=O)[C@@H](C)O2)[C@@H]1C (stereo not given in full) = > 10 µM
Cc1cccc(Nc2nc(NCc3ccco3)c3ccccc3n2)c1 = 4.93 µM
CCc1ccc2[nH]c(=O)c(CN(CCO)C(=S)Nc3ccccc3CC)cc2c1 = 48.1 µM

Moving on to the next molecule.
Qu. Fill blank: measured CC50 of the molecule N#Cc1ccc(CNC(=S)Nc2cc(Cl)ccc2Cl)cc1 is ____.
Ans. > 100 µM

====

Some compounds, each annotated with its measured CC50.
procedure_summary: NOVARTIS: Cytotoxicity against human hepatocellular carcinoma cell line (Huh7)
Type: toxicity, cell-based, Huh-7
assay_context: Huh7 cells (hepatocellular carcinoma cell line)

Worked set:
CN(CCCNc1ccnc2cc(Cl)ccc12)C(=O)C(Cl)Cl = > 14.1 µM
O=S(=O)(NCCCCNc1ccnc2cc(Cl)ccc12)c1ccc(F)cc1 = > 10 µM
S=C(NN=Cc1ccccn1)NC1CC2CC1C1C=CCC21 (stereo unspecified) = > 1.14 µM
Cc1cc2nc3ccc(N(C)C)cc3[n+](-c3ccccc3)c2cc1N = > 10 µM
CCCCN(CCCC)CC(O)c1cc(Cl)cc2c1-c1ccc(Cl)cc1/C2=C/c1ccc(Cl)cc1 (stereo unspecified) = > 10 µM

Qu. Fill blank: measured CC50 of the compound CC(C)(C)CC(C)(C)c1ccc(O)c(CN2CCN(CCC#N)CC2)c1 is ____.
Ans. > 100 µM

====

Some molecules, each annotated with its measured CC50.
procedure_summary: NOVARTIS: Cytotoxicity against human hepatocellular carcinoma cell line (Huh7)
Assay type: toxicity, cell-based, Huh-7
assay_context: Huh7 cells (hepatocellular carcinoma cell line)

Qu. Fill blank: measured CC50 of the molecule CC(=O)N(C1=C(N(C)C)C(=O)c2ccccc2C1=O)c1cccc(F)c1 is ____.
Ans. 1.36 µM

Qu. N#Cc1cc(-c2cccc(C(F)(F)F)c2)cn(Cc2c(Cl)cccc2Cl)c1=O , same question.
Ans. > 100 µM

Qu. C=CC12CCN(CC1)C(C(O)c1ccnc3ccc(OC)cc13)C2 (stereo not given) , same question.
Ans. 77.7 µM

Qu. CN(C)c1oc(-c2ccc(Cl)cc2Cl)nc1[P+](c1ccccc1)(c1ccccc1)c1ccccc1 , same question.
Ans. 11.6 µM

====

procedure_summary: NOVARTIS: Cytotoxicity against human hepatocellular carcinoma cell line (Huh7)
Type: toxicity, cell-based, Huh-7
assay_context: Huh7 cells (hepatocellular carcinoma cell line)
Some molecules, each annotated with its measured CC50.
Give the quantity in µM, number only.

O=C(CCC1CCCC1)NCCCCNc1ccnc2cc(Cl)ccc12 = 2.27

Qu. Fill blank: measured CC50 of the molecule COc1ccc(C=C2SC(Nc3ccc(F)cc3)=NC2=O)c(OC)c1 is ____.
Ans. 12.2

Qu. Cc1cccc2cc(CNC3CCOC(C)(C)C3)c(N3CCCC3)nc12 (stereo not given) , same question.
Ans. 39.1

Qu. CCCCOc1ccc(NC2=C(N3CCCCC3)C(=O)c3ccccc3C2=O)cc1 , same question.
Ans. 15.5

====

procedure_summary: NOVARTIS: Cytotoxicity against human hepatocellular carcinoma cell line (Huh7)
Assay type: toxicity, cell-based, Huh-7
assay_context: Huh7 cells (hepatocellular carcinoma cell line)
readout_label: CC50

Worked set:
CCN(C(=O)Cn1c(=O)oc2ccccc21)c1ccc(F)cc1 = > 10 µM
O=[N+]([O-])c1ccc(N2CCCN(C(=S)Nc3ccccc3)CC2)nc1 = > 100 µM
CCOc1cc(Br)cc(/C=C2\NC(=S)NC2=O)c1O = > 10 µM
CCc1ccc(Nc2cc(C)nc3nc(C)nn23)cc1 = > 100 µM
Cc1cccc(-c2cc(C(=O)NC3CCN(Cc4ccccc4)CC3)cc(-n3cnnn3)c2)c1 = 50.1 µM
COc1nc(C)nc(NC(=O)NC(=O)c2c(OC)ccc([N+](=O)[O-])c2OC)n1 = > 10 µM

Qu. Fill blank: measured CC50 of the compound CC1CCCCN1CCCNCc1ccc(OCc2ccccc2)cc1 (stereo unspecified) is ____.
Ans. 4.65 µM

Qu. COc1nc(NC(=N)N)nc2ccc(C)cc12 , same question.
Ans. 58 µM

Qu. Cc1cc(NC(=O)C=Cc2ccccc2Cl)ccc1Br , same question.
Ans. > 100 µM

Qu. CCc1ccc2c(c1)C1(NN=C(c3ccc(C)cc3)S1)C(=O)N2 (stereo unspecified) , same question.
Ans. 23.8 µM

Qu. COc1ccc(/C=C\c2cc[n+](C)cc2)cc1OC , same question.
Ans. > 10 µM
